assay: Intrinsic clearance in rat liver microsomes at 1 uM preincubated for 5 mins followed by NADPH addition measured after 5 to 30 mins by LC-MS/MS analysis; format: ADME; conditions: read-out: CLH
Property label: microsomal CLint at 1 µM (µL/min/mg)
Only the number, expressed in µL/min/mg, is required.

| Compound | Numeric readout |
| --- | --- |
| Nc1n[nH]c2ccc(C(=O)N3CCCC[C@H]3c3ccc(F)cc3)cc12 | 15 |
| Cc1ncc2ccc(C(=O)N3CCC[C@H]3c3ccc(Cl)cc3)cn12 | 108 |

Hello, please tell me recorded microsomal CLint at 1 µM for this one: Nc1n[nH]c2ccc(C(=O)N3CCC[C@H]3c3ccc(Cl)cc3)cc12 10
